System: SW-620
protocol.text: NCI tumour cell line growth inhibition, 48 h
Calls of active or inactive are those of the source. No stated cut-off is given here; in the data, active = GI50 up to about 1.1 µM and inactive = higher.
Catalogue of GI50 values

Some compounds with known GI50 results, for comparison:
> print(dat)
                                   compound                  val
1            N#C/C(=C/NC(=S)c1ccncc1)C(N)=O  > 100 µM (inactive)
2  CC1=NN(C(=O)Cc2ccccc2)C(=O)/C1=C\c1ccc(O)cc1  > 100 µM (inactive)
3  O=C(CC(=O)N1N=C(n2ccc3ccccc32)CC1c1ccccc1)Nc1ccccc1Cl (stereo unspecified)  > 100 µM (inactive)
4  c1ccc(-c2[nH]c(-c3ccccc3)c(-c3cnccn3)c2-c2cnccn2)cc1  > 100 µM (inactive)
5  O=C1C=CC(=O)N1c1ccc2c(c1)Cc1cc(NC(=O)C(F)(F)F)ccc1-2   9.84 µM (inactive)
6  Cc1nnc2n1N=C(c1cc(F)c(Cl)cc1Cl)/C(=C/c1ccc3c(c1)OCO3)S2  > 100 µM (inactive)

Consider the record given below.
Lab note: COc1ccccc1Cn1nc(OC)c2cc([N+](=O)[O-])ccc21 gave GI50 of > 100 µM (inactive)

* * *

Tested on: RPMI-8226
protocol.text: NCI tumour cell line growth inhibition, 48 h
The source made the active and inactive calls. Rule as the data show it: active = GI50 up to about 1.1 µM and inactive = higher.
One label from this list, please: true (1) (active), false (0) (inactive)

compound	qualitative.label
COc1ccc(C(O)c2nccn2C)c(OC)c1 (stereo unspecified)	false (0)
Clc1ccc(COc2ccccc2/C=N/c2c(-c3ccco3)nc3ccccn23)c(Cl)c1	false (0)
COC(=O)c1cc(C#N)[nH]c1-c1ccc(C)s1	false (0)
CCCCc1ccc(-n2sc3ncccc3c2=O)cc1	false (0)
Nc1ccccc1/N=N/c1c(S(=O)(=O)O)cc2cc(S(=O)(=O)O)cc(O)c2c1O	false (0)
CC1CCOc2ccc(cc2)/C=N\c2ccc(cc2)CCc2ccc(cc2)/N=C\c2ccc(cc2)OCC1	false (0)
CC(=O)OCC1OC(OC2CC3C(C)(C)C(O)CC[C@]3(C)C3CCC45CC4(CCC5[C@@H](C)CC(O)C(O)C(C)(C)O)[C@]23C)C(O)C(O)C1O (stereo partly specified)	false (0)
CCC12CCCC(=O)N1C(CO)C(c1ccccc1)O2 (stereo unspecified)	false (0)

Hi team, can someone confirm the assay call for COC(=O)/C(Cl)=C1/CC1COCc1ccccc1 (stereo unspecified) ?
false (0)

Hi team, can someone confirm the assay call for COC(=O)C1C(O)CC(c2ccccn2)N(Cc2ccccc2)C1c1ccccn1 (stereo unspecified) ?
false (0)

* * *

Tested on: 786-0
protocol.text: NCI tumour cell line growth inhibition, 48 h
The source made the active and inactive calls. Cut-off read from the data, not from the text of the source: active = GI50 up to about 1.1 µM and inactive = higher.
The following compounds are shown together with reported GI50 values.

Worked examples follow.
> print(dat)
                                   compound  assayed.target                  val
1      O=S1(=O)OCCOS(=O)(=O)C1(Br)Cc1ccccc1           786-0  > 100 µM (inactive)
2  CCOC(=O)c1c(-c2[nH]c(C(=O)OCc3ccccc3)c(C)c2C(=O)OCC)[nH]c(C(=O)OCc2ccccc2)c1C           786-0     92 µM (inactive)
3   O=c1[nH]c(=O)n(CCOc2ccccc2)cc1Nc1ccccc1           786-0   61.2 µM (inactive)
4              NCCCN1c2ccccc2Sc2ccc(Cl)cc21           786-0   3.24 µM (inactive)

Value of GI50 reported for the compound COc1cc(C2c3cc4c(cc3OC(N3CCOCC3)C2C)OCO4)cc(OC)c1OC (stereo unspecified) is 3.18 µM (inactive)

Quick note, GI50 for COc1c(C(=O)/C(=N/Nc2ccccc2)C(C)=O)c(O)c(OC)c2occc12 landed at > 100 µM (inactive)
